system: methicillin-resistant S. aureus (MRSA) (NCTC12493); assay: MIC/MBC broth-dilution assay; type: cell-based, Staphylococcus aureus; settings: MHB pH 7.4, 512 to 1 µM twofold, 1% DMSO
No end group written: not given here.
parameter measured: MIC (µM)
The answer is to be given in µM; state only the numeric part.

Answered cases to consult:
{"columns": ["substance", "MIC [µM]"],
 "data": [
  ["FLSLIPKIISAISALINHF-NH2 [PSPHa4]", 128],
  ["FLSLIPKAISAISALINHF-NH2 [PSPHa3]", 32],
  ["FLSLIPKIISAISALIKHF-NH2 [PSPHa5]", 64],
  ["FLSLIPAAISAVSALANHF-NH2 [PSPHa, Phylloseptin-PHa]", 64],
  ["FLSLIPKAISAISALANHF-NH2 [PSPHa2]", 16]
]}

Next:
Quote MIC with test system methicillin-resistant S. aureus (MRSA) (NCTC12493) for FLSLIPKAISAVSALANHF-NH2 [PSPHa1]
16
